# System under test: OsWOX13 (Oryza sativa, UniProt Q5QMM3 1-267)
# Sequence: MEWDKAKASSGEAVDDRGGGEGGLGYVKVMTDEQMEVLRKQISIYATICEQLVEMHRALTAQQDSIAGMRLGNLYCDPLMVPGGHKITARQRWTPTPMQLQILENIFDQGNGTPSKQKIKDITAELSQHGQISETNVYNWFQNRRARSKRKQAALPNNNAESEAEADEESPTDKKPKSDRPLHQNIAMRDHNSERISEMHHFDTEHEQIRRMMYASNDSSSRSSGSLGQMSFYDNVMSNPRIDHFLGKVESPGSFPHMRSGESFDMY
# Experimental protocol: protein-binding microarray (RPBM); PBS, 2% BSA, 51.3 ng/ul salmon testes DNA, 50 uM zinc acetate, 200 nM TF, 25 C, 1 h; high values mean tight binding
# Cond: protein: recombinant; tags: N-terminal polyhistidine and DsRed monomer fusion (pET32a); label: CyDye5-dUTP incorporated in the synthesized complementary strand; 3' TTTTT single-stranded linker to array surface; dsDNA, one strand shown
In all, about 35,000 sequences were measured (“fluorescence intensity (a.u.)”: median about 10,000, highest 2% from about 52,000 on). The entries come from a sample that favours the highest values as a whole.
Experimental endpoint: binding signal

>>> print(df.to_string())
                                   sequence                               result
0  AAATTAAATTGCCCGGATCAATGGCTACAAATACCCCATGCGGAGTCACCTAGTGCAG  15200 fluorescence intensity (a.u.)
1  ATTGAATAATCAAAATTTCAATCTTTGATCGATGAGGTATCGGAGTCACCTAGTGCAG  12100 fluorescence intensity (a.u.)
2  CTATATAAAACTGATTGATTCATATTACTACGACGTTTTACGGAGTCACCTAGTGCAG   6690 fluorescence intensity (a.u.)
3  CAAATTAACTGGAAATTTTGAAGCATCCATGTTCTGTGAGCGGAGTCACCTAGTGCAG  46600 fluorescence intensity (a.u.)

Task: Tell me reported binding signal for `CAAATTGAAGAGGATGCATGAATTGGATTTGCAGGAGAAGCGGAGTCACCTAGTGCAG` , tested with OsWOX13 (Oryza sativa, UniProt Q5QMM3 1-267).
Result: 5250 fluorescence intensity (a.u.)

Task: Then this sequence: `CCAAATTAAGTGGAAATTAATTTGCAAGCTGAGAACGATGCGGAGTCACCTAGTGCAG`
Result: 55000 fluorescence intensity (a.u.)

Task: Also `ATCGTAATAGAATATGTCACATTCGGTTTTGGCTCAAGTTCGGAGTCACCTAGTGCAG` , if possible.
Result: 5710 fluorescence intensity (a.u.)

Task: Same for `ACATATAATTGCCACGTCAGCGCCACATCAATGCCACGTGCGGAGTCACCTAGTGCAG`
Result: 23200 fluorescence intensity (a.u.)
